Value source: PubChem BioAssay (NCI)

- Test system: LOX IMVI melanoma
- assay.remarks: NCI-60 one-dose screen, 48 h
- test.settings: 10 µM
Compounds without any hit were thinned out: in the full panel of roughly 83,000, 20% have a hit. The source made the active and inactive calls. Rule for the calls: active = growth percent below 10; inactive = the rest.
# valid calls are class 1 (active), class 0 (inactive); nothing else

Cc1ccc(-n2c(-c3cc4ccccc4nc3Cl)noc2=O)cc1 :: class 0
O=C1/C(=C/C2=Cc3ccccc3OC2)SC(=S)N1c1ccccc1F :: class 0
Clc1ccc(-c2ccc(OCCCN3CCN(c4ccncc4)CC3)cc2)cc1 :: class 1
Nc1nnc(-c2c[nH]c3ccc(Br)cc23)c(-c2c[nH]c3ncc(Br)cc23)n1 :: class 0
Cc1ccc(C(SCCNCc2cc(N(C)C)ccn2)(c2ccccc2)c2ccccc2)cc1 :: class 1

Dear all, I need the recorded test outcome for Cc1ccccc1[C@H]1C(C(=O)c2ccc(Cl)cc2)C2(N[C@@H]1c1ccccc1)C(=O)Nc1ccccc12 (stereo partly specified) , thank you. class 1

Per the assay record, what outcome was assigned to COC(=O)/C=C/c1cccc2c1C(=O)NC(C)(c1cc3ccccc3oc1=O)N2 (stereo unspecified) ? class 0

Record lookup: outcome of this test for CCN(CC)CCOc1ccc(Nc2ncc3cc(-c4ccc(O)c(C#N)c4)c(=O)n(C)c3n2)cc1 ? class 0

Outcome logged for Cc1ccc(C2=NN(c3nc(-c4cc5ccccc5oc4=O)cs3)C(c3ccc(C)cc3)C2)cc1 (stereo unspecified) in this assay: class 0

How did this test come out for CCCCSc1nc(Nc2ccc(C(C)=O)cc2)c(C#N)c(-c2ccc(OC)cc2)n1 ? class 0

State the result this test recorded for C=C1CC[C@@H]2[C@]3(C)COC(c4cn[nH]c4-c4cccc(Cl)c4)O[C@@H]3CC[C@@]2(C)[C@@H]1C/C=C1/C(=O)OCC1O (stereo partly specified) . class 1

Answer briefly: the call reported for C#C[C@]1(O)CC[C@H]2[C@@H]3CC=C4c5sc(-c6ccc([N+](=O)[O-])cc6)nc5CC[C@]4(C)[C@H]3CC[C@@]21C in this assay. class 1

Query: recorded result category for CN1CCN(Cc2ccc(C(=O)Nc3cccc(C#Cc4cccc5[nH]nc(N)c45)c3)cc2C(F)(F)F)CC1 in this test class 1

Kindly provide the recorded test outcome for the following molecule: O=C(O)Cn1c(O)c(/C=C2/C=c3cc4c(cc3=NC2=O)OCCO4)sc1=S class 0

Please state the recorded outcome for this molecule: O=C(NNc1nc2cc(F)ccc2n2c(CN3CCCCC3)ccc12)c1cnccn1 class 1

Tell me the recorded outcome of this test for Cn1cc(-c2cc3nc(-c4cn(C)c5ncccc45)cc(N)n3n2)c2cc(Cl)ccc21 . class 1

Please share the test call associated with COc1cc2oc(-c3cccc(C(=O)Nc4ccc(Cl)cc4)c3)cc(=O)c2c(OCCNC(=O)[C@H](CO)NC(=O)OC(C)(C)C)c1OC . class 1

Test call for this molecule, please: Cc1cccc(-c2nc(Nc3ccc(C)c(S(N)(=O)=O)c3)c3ccccc3n2)c1 class 1

I would be grateful if you could indicate the recorded call for COc1ccc(/C=C/c2nc3ccccc3c(=O)n2CC(=O)Nc2ccc(Cl)cc2)cc1 . class 0

What did this assay record as the result for O=C(NNc1nc2cc(F)ccc2n2c(CN3CC4CNCC4C3)ccc12)c1ccncn1 (stereo unspecified) ? class 1

###

- Tested on: MOLT-4 leukemia
- assay.remarks: NCI-60 one-dose screen, 48 h (100 = growth as untreated, 0 = no growth, -100 = all killed)
- test.settings: 10 µM unless noted
This is part of a sample that, as a whole, favours compounds with a hit. Of some 83,000 tested, about 20% had one in any assay.
growth values, listed per item
Numeric only. Scale: %

The cases that follow already have their growth on record.
N/C(=N\c1nc2ccccc2s1)NC(=O)Nc1c(Cl)cccc1Cl :: 30
Cc1cc(=O)oc2cc(OCCCCOc3ccc(/C=C/C(=O)Nc4ccccc4N)cc3)ccc12 :: 27.8
COc1c(F)ccc(C(=O)Nc2ccc3nc(NC(=O)C4CCCN(S(=O)(=O)c5ccc(Br)c(F)c5)C4)sc3c2)c1F (centres undefined) :: 42.5
C#CCOc1ccc(/C=N/Nc2nc(-c3ccc(F)cc3)cs2)cc1OC :: 12.1
O=C(COc1ccc2c(c1)CCCC(=O)N2)NCc1ccccc1 :: 80.6

Using the record for COc1ccc(C2=NN(C(C)=O)C(c3ccc(OCc4ccc(Cl)cc4)c(OC)c3)C2)cc1OC (centres undefined) , state its measured growth. 20.5

Give the value of growth reported for the following: C=C1CC[C@@H]2[C@]3(C)COC(c4cn[nH]c4-c4cccc(Br)c4)O[C@@H]3CC[C@@]2(C)[C@@H]1C/C=C1/C(=O)OCC1O (some centres undefined) 12.2

Specify measured growth for Cc1ccc(C(=O)CSc2nc3ccc(F)cc3c(=O)n2-c2ccc(Cl)cc2)cc1 . 82.4

Let me know recorded growth for C=C1CCC2C3(C)COC(c4ccccc4)OC3CCC2(C)C1CC(NCc1ccccc1)C1=CCOC1=O (centres undefined) , thanks. 61.1

###

- System: UACC-257 melanoma
- assay.remarks: NCI-60 one-dose screen, 48 h (100 = growth as untreated, 0 = no growth, -100 = all killed)
- test.settings: 10 µM unless noted
This is part of a sample that, as a whole, favours compounds with a hit. Of some 83,000 tested, about 20% had one in any assay.
value.type: growth (%)
// units = %; emit number, no label

Some solved entries appear below for comparison.
Cc1ccccc1[C@H]1C(C(=O)c2ccc(Cl)cc2)C2(N[C@@H]1c1ccccc1)C(=O)Nc1ccc(Cl)cc12 (stereo partly specified) :: 4.82
O=C(c1ccccc1)c1ccc2nc(-c3cccc(Cl)c3)[nH]c2c1 :: 100
CC1=C(C(=O)c2ccccc2)C(c2cccc(Cl)c2Cl)n2c(nc3ccccc32)N1 (stereo unspecified) :: 76.2
O=C(NN1C(=O)/C(=C/C=C/c2ccc([N+](=O)[O-])o2)SC1=S)c1ccc(Cl)cc1 :: -93.3
O=C(Cn1nc(-c2ccccc2)ccc1=O)N/N=C/c1ccc(N2CCOCC2)cc1 :: 99.2

Give the reported growth for this molecule. CC(C)CCNC(=O)N/C(N)=N/c1nc2ccccc2s1 35.5

Give recorded growth. COc1cc2oc(-c3cccc(C(=O)Nc4ccc(Cl)cc4)c3)cc(=O)c2c(OCCNC(=O)[C@H](CO)NC(=O)OC(C)(C)C)c1OC -41.7

Identify growth associated with the molecule CN1C(=O)/C(=C/c2ccc(C(=O)Nc3ncc(Cc4ccc(Cl)cc4Cl)s3)cc2)SC1=S 33.1

Read off the recorded growth for CC1(C)CC[C@]2(C(=O)Nc3ccc(F)cc3)CC[C@]3(C)C(=CCC4[C@@]5(C)C[C@@H](O)[C@H](O)[C@@](C)(CO)C5CC[C@]43C)C2C1 (stereo partly specified) 27.7

Item CCCCCCCCOc1cccc(S(=O)(=O)Nc2ccc(C)cc2C(=O)O)c1 : provide growth 96.7

Answer with the recorded growth of CN(C)CCn1c2ccccc2c2nc3cc(C(F)(F)F)ccc3nc21 only. 45.1

Recall and state the measured growth for COc1ccc(NC(=O)Cn2c3c(sc2=O)[C@H]2[C@@H](O)[C@@H](O)[C@H](O)[C@@H]2CS3)cc1 . 102

Tell me growth reported for N#Cc1c(-c2ccc(Br)cc2)nc2n[nH]c(-c3ccc(Br)cc3)c2c1-c1ccc(C(F)(F)F)cc1 28.5

Find the measured growth of CC12CC[C@@H]3[C@]4(C)COC(c5cn[nH]c5-c5ccc(Br)cc5)O[C@@H]4CC[C@@]3(C)[C@@H]1CC(C1=CCOC1=O)O2 (stereo partly specified) and report it. 55.2

Supply measured growth of CN(C)c1nc(NCCNS(=O)(=O)c2ccc(C3=Nc4c(N)nc(N)nc4NC(c4ccccc4)C3)cc2)nc(Nc2ccc(F)cc2)n1 (stereo unspecified) in your reply. 70.8

Entry O=c1oc2ccccc2cc1-c1csc(N=Nc2c(O)[nH]c3ccc(Cl)cc23)n1 needs its growth filled in; supply it. 104

Please list growth recorded for the molecule Cc1cc(N=C2NC(=O)CS2)n[nH]1 118

For Cc1cc(C)cc(NC(=O)Cn2cc(COn3nnc4ccccc43)nn2)c1 , write its growth. 101

Note down growth recorded for Nc1cccc(SCc2cc3ccccc3[nH]c2=O)c1 48.5

Input C=C1CCC2C3(C)COC(c4ccccc4)OC3CCC2(C)C1CC(NCc1ccccc1)C1=CCOC1=O (stereo unspecified) , output reported growth. 71.7

Using known records, supply growth for COc1ccc(C2(SCCNCc3cc(N(C)C)ccn3)c3ccccc3C=Cc3ccccc32)cc1 41.1

Input C#CCOc1ccc(/C=N/Nc2nc(-c3ccc(Cl)cc3)cs2)cc1OC , output reported growth. 45.5

Give growth for the following molecule: Cn1cc(-c2nnc(N)nc2-c2c[nH]c3ccc(F)cc23)c2cccnc21 72.7

Given the molecule Cc1ccc(S(=O)(=O)c2nc(S(=O)(=O)c3ccc(C)cc3)c(N3CCC(O)CC3)s2)cc1 , write its reported growth. 81.6

Output measured growth for this item: COc1c(F)ccc(C(=O)Nc2ccc3nc(NC(=O)C4CCCN(S(=O)(=O)c5ccc(Br)s5)C4)sc3c2)c1F (stereo unspecified) 88.7

Fill in reported growth for this entry: O=C(N/N=C/c1ccc(-c2ccc(O)cc2)s1)c1[nH]c2ccc(Br)cc2c1-c1ccccc1 53.9

Give growth for the following molecule: CC(=O)Nc1cccc(-c2nc3cc(-c4ccc(O)cc4)ccc3n2C)c1 -3.29
